Please provide measured pKi for the entries that follow.
# ASSAY_SYSTEM: catalytic domain of MMP-3 (UniProt P08254 100-272)
# Sequence (P08254 100-272): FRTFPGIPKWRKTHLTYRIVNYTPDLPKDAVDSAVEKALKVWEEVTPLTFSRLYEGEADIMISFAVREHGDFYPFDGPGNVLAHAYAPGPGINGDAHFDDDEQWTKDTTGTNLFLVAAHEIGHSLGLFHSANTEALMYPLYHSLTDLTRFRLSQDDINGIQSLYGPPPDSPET
# ASSAY_REMARKS: enzyme inhibition assay
Give bare numbers, as −log10 of the molar value.

Batch request: pKi per item, same order as input.
1. N-TIMP2 H97R (domain or fragment, native disulfides) CSCSPVHPQQAFCNADVVIRAKAVSEKEVDSGNDIYGNPIKRIQYEIKQIKMFKGPEKDIEFIYTAPSSAVCGVSLDVGGKKEYLIAGKAEGDGKMRITLCDFIVPWDTLSTTQKKSLNHRYQMGCE
2. N-TIMP2 S68E (domain or fragment, native disulfides) CSCSPVHPQQAFCNADVVIRAKAVSEKEVDSGNDIYGNPIKRIQYEIKQIKMFKGPEKDIEFIYTAPESAVCGVSLDVGGKKEYLIAGKAEGDGKMHITLCDFIVPWDTLSTTQKKSLNHRYQMGCE
3. N-TIMP2 T99Q (domain or fragment, native disulfides) CSCSPVHPQQAFCNADVVIRAKAVSEKEVDSGNDIYGNPIKRIQYEIKQIKMFKGPEKDIEFIYTAPSSAVCGVSLDVGGKKEYLIAGKAEGDGKMHIQLCDFIVPWDTLSTTQKKSLNHRYQMGCE
4. N-TIMP2 T99G (domain or fragment, native disulfides) CSCSPVHPQQAFCNADVVIRAKAVSEKEVDSGNDIYGNPIKRIQYEIKQIKMFKGPEKDIEFIYTAPSSAVCGVSLDVGGKKEYLIAGKAEGDGKMHIGLCDFIVPWDTLSTTQKKSLNHRYQMGCE
5. N-TIMP2 V71W (domain or fragment, native disulfides) CSCSPVHPQQAFCNADVVIRAKAVSEKEVDSGNDIYGNPIKRIQYEIKQIKMFKGPEKDIEFIYTAPSSAWCGVSLDVGGKKEYLIAGKAEGDGKMHITLCDFIVPWDTLSTTQKKSLNHRYQMGCE
6. N-TIMP2 V71R (domain or fragment, native disulfides) CSCSPVHPQQAFCNADVVIRAKAVSEKEVDSGNDIYGNPIKRIQYEIKQIKMFKGPEKDIEFIYTAPSSARCGVSLDVGGKKEYLIAGKAEGDGKMHITLCDFIVPWDTLSTTQKKSLNHRYQMGCE
7. N-TIMP2 T99M (domain or fragment, native disulfides) CSCSPVHPQQAFCNADVVIRAKAVSEKEVDSGNDIYGNPIKRIQYEIKQIKMFKGPEKDIEFIYTAPSSAVCGVSLDVGGKKEYLIAGKAEGDGKMHIMLCDFIVPWDTLSTTQKKSLNHRYQMGCE

8.88
8.33
8.43
8.37
7.58
7.06
8.08

Batch request: pKi per item, same order as input.
1. N-TIMP2 S68M (domain or fragment, native disulfides) CSCSPVHPQQAFCNADVVIRAKAVSEKEVDSGNDIYGNPIKRIQYEIKQIKMFKGPEKDIEFIYTAPMSAVCGVSLDVGGKKEYLIAGKAEGDGKMHITLCDFIVPWDTLSTTQKKSLNHRYQMGCE
2. N-terminal domain of the tissue inhibitor of metalloproteinase 2, wild type (domain or fragment) CSCSPVHPQQAFCNADVVIRAKAVSEKEVDSGNDIYGNPIKRIQYEIKQIKMFKGPEKDIEFIYTAPSSAVCGVSLDVGGKKEYLIAGKAEGDGKMHITLCDFIVPWDTLSTTQKKSLNHRYQMGCE

[8.48, 8.87]

Hey, just so you know, these numbers are from paper PMC7376575.
